read-out: Macrophage colony-stimulating factor (MCSF), CSF1 (gene 1435); test: BSK_hDFCGF_MCSF: BioMAP Diversity Plus: hDFCGF Assay for Macrophage colony-stimulating factor (MCSF) Biomarker Activity (AID 2283060); details: primary human foreskin fibroblasts; actives raise or lower the signal
Calls of active or inactive are those of the source. How the source made its calls: active means hit-call score of the fitted dose curve at least 0.9, where 1 is the maximum; inactive means score below 0.9.
Outcome codes: label 1 (active), label 0 (inactive)

| compound | group-label |
| --- | --- |
| CCn1cc(C(=O)O)c(=O)c2ccc(C)nc21 | label 0 |
| c1ccc2c(c1)-c1ccc3ccc4cccc5cc-2c1c3c45 | label 1 |
| c1ccc(OCCOc2ccccc2)cc1 | label 0 |
| O=S1(=O)CC(Cl)(Cl)C(Cl)(Cl)C1 | label 1 |
| CCCCN(CCO)CCO | label 0 |
| CCCCCCCCCCCCS | label 1 |
| CC1=CC(C)C(C=O)C(C)C1 (stereo unspecified) (tested in a mixture with another compound) | label 0 |
| C[C@]12CC[C@@H]3c4ccc(O)cc4CC[C@H]3[C@@H]1CC[C@@H]2O | label 0 |
| O=C1OC2(c3ccc(O)cc3Oc3cc(O)ccc32)c2ccccc21 | label 0 |
| C=C(C)C(N)=O | label 0 |
| Nc1ccc(N)c([N+](=O)[O-])c1 | label 0 |
| CC(=O)c1ccc(C)cc1 | label 0 |
| OCCN1CCOCC1 | label 0 |
| C#C[C@]1(O)CC[C@H]2[C@@H]3CCc4cc(O)ccc4[C@H]3CC[C@@]21C | label 0 |
| CCCCCCCCCC(=O)OCC | label 1 |
| CC=CC(=O)C1=C(C)C=CCC1(C)C | label 0 |
| NC(=O)c1c(Cl)cccc1Cl | label 0 |
| COc1ccccc1NC(=O)CC(C)=O | label 0 |
| CC(C)(C)c1cccc(O)c1 | label 0 |
| CC(=O)CCC=C(C)CCC=C(C)C | label 0 |
| CC(C)CCCC(C)(C)O | label 0 |
| c1ccc(Sc2ccccc2)cc1 | label 1 |
| O=C(O)C(F)(F)C(F)(F)C(F)(F)C(F)(F)C(F)(F)C(F)(F)C(F)(F)C(F)F | label 0 |
| CCCCOCCOCCO | label 0 |
| COC(=O)c1ccc(C(=O)OC)cc1 | label 0 |
| CC(C)Cc1ccc(C(C)C(=O)O)cc1 (stereo unspecified) | label 0 |

* * *

assay: ATG_AP_1_CIS: Attagene CIS-FACTORIAL HepG2 Assay for human Activator Protein 1 (AP-1) (AID 2282931); conditions: HepG2 Attagene cis-factorial AP-1 reporter mRNA; actives raise or lower the signal
The source made the active and inactive calls. Rule for the calls: active = hit-call score of the fitted dose curve at least 0.9, where 1 is the maximum; inactive = score below 0.9.
Outcome codes: 1.0 = active, 0.0 = inactive

| compound | group-label |
| --- | --- |
| CCCCOCCOC(=O)c1ccccc1C(=O)OCCOCCCC | 0.0 |
| CC(O)CNCC(C)O (stereo unspecified) | 0.0 |
| NC(=O)NC(N)=O | 0.0 |
| CC(=O)OC/C=C(C)/C=C/C=C(C)/C=C/C1=C(C)CCCC1(C)C | 1.0 |
| O=c1cc[nH]cc1 | 0.0 |
| O=C1CCCCCCCCCCCC(=O)OCCO1 | 0.0 |
| O=C1CCC(=O)N1 | 0.0 |
| NS(=O)(=O)c1cc(C(=O)O)c(NCc2ccco2)cc1Cl | 0.0 |
| CC(=O)CC(C)(C)C1CCCCC1 | 0.0 |
| C=C(C)C(=O)OCCN(C)C | 0.0 |
| CCCCCCCCOS(=O)(=O)O | 0.0 |
| CCCCCCOc1ccc(O)cc1 | 0.0 |
| CCOC(=O)COC(=O)c1ccccc1C(=O)OCC | 0.0 |
| NC(=O)c1cccnc1 | 0.0 |
| N#CCCNCCC#N | 0.0 |
| O=C1OC2(c3ccc(O)cc3Oc3cc(O)ccc32)c2ccccc21 | 0.0 |
| C=C1CC[C@H]2O[C@]2(C)CC[C@@H]2[C@@H]1CC2(C)C | 0.0 |
| CCCCCC(=O)O[C@]1(C(C)=O)CC[C@H]2[C@@H]3CCC4=CC(=O)CC[C@]4(C)[C@H]3CC[C@@]21C | 1.0 |
| CC1=CC[C@@H](C(C)(C)O)CC1 | 0.0 |
| CC(=O)c1ccc(O)cc1 | 0.0 |
| CCOC(=O)CC1(C)OCC(C)O1 (stereo unspecified) | 0.0 |
| O=C(O)c1ccco1 | 0.0 |
| Cc1cccc(C)c1 | 0.0 |
| CC/C=C\CCCCO | 0.0 |
| CN(C)C(=O)Nc1ccccc1 | 0.0 |
| CNC(=C[N+](=O)[O-])NCCSCc1ccc(CN(C)C)o1 | 0.0 |
| CC/C(=C(\c1ccccc1)c1ccc(OCCN(C)C)cc1)c1ccccc1 | 0.0 |
| COc1ccccc1O | 0.0 |
| CCCCC1CCCCC(=O)O1 (stereo unspecified) | 0.0 |
| C=CC(O)CCCCC (stereo unspecified) | 0.0 |
| CCCCN(CCO)CCO | 0.0 |

* * *

biological target: Heat shock factor protein 1 (Homo sapiens); experiment: ATG_HSE_CIS: Attagene CIS-FACTORIAL HepG2 Assay for human Heat Shock Transcription Factor 1 (HSE) (AID 2282953); details: HepG2 HSE cis-reporter, Attagene RNA transcription; actives raise or lower the signal
Active and inactive are the calls of the source. How the source made its calls: active means hit-call score of the fitted dose curve at least 0.9, where 1 is the maximum; inactive means score below 0.9.
Outcome codes: 1 for active, -1 for inactive

| compound | group-label |
| --- | --- |
| CCCCOCCOC(=O)c1ccccc1C(=O)OCCOCCCC | -1 |
| Cc1ccccc1S | 1 |
| C=CCCCCCCCCC(=O)OCC | -1 |
| CC(C)Cc1ccc(C(C)C(=O)O)cc1 (stereo unspecified) | -1 |
| S=c1[nH][nH]c(=S)s1 | -1 |
| CN(C)C(=O)Nc1ccccc1 | -1 |
| CCOC(=O)CC(C)C | -1 |
| CCCCCCCCSCc1cc(C)c(O)c(CSCCCCCCCC)c1 | -1 |
| COc1ccc(OC)cc1 | -1 |
| CC12CCC(C1)C(C)(C)C2O (stereo unspecified) | -1 |
| O=C(C=Cc1ccccc1)OCCCc1ccccc1 | -1 |
| [Cl][Dy]([Cl])[Cl] | -1 |
| CC(CO)c1ccccc1 (stereo unspecified) | -1 |
| OCC=Cc1ccccc1 | -1 |
| CCC(=O)OC/C=C(\C)CCC=C(C)C | -1 |
| CC(=O)OCC=C(C)CCC=C(C)CCC=C(C)C | 1 |

* * *

biological target: Retinoic acid receptor RXR-alpha (Homo sapiens) (UniProt P19793); assay: OT_NURR1_NURR1RXRa_1440: Odyssey Thera (OT) 24-hour HEK293T Protein Complementation Assay for Nurr1/retinoid X receptor (RXR) (AID 2283386)
Sequence (P19793 whole entry, looked up): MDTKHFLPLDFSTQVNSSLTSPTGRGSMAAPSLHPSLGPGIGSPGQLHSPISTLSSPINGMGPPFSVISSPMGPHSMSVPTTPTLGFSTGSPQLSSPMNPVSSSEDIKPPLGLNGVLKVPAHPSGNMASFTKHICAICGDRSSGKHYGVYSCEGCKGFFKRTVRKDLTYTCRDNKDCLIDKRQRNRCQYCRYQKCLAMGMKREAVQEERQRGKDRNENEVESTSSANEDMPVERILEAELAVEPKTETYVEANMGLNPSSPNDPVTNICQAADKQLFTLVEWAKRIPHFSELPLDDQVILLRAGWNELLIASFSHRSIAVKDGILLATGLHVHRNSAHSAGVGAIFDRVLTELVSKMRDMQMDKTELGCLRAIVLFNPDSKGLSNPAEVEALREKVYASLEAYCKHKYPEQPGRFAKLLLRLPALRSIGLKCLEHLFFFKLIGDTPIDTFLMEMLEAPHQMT
Inconclusive results are not listed. The source made the active and inactive calls. The calls were made as follows: active = hit-call score of the fitted dose curve at least 0.9, where 1 is the maximum; inconclusive = response in the unintended direction; inactive = score below 0.9.
Outcome codes: active, inactive

| compound | assayed-target | group-label |
| --- | --- | --- |
| CCC(C)COC(=O)CC(C)C (centres undefined) | Retinoic acid receptor RXR-alpha (Homo sapiens) (UniProt P19793) | inactive |
| CCO[Si](CC)(OCC)OCC | Retinoic acid receptor RXR-alpha (Homo sapiens) (UniProt P19793) | inactive |
| O=C(O)C1=NN(c2ccc(S(=O)(=O)O)cc2)C(=O)C1 | Retinoic acid receptor RXR-alpha (Homo sapiens) (UniProt P19793) | inactive |
| CCCCCCOc1ccc(O)cc1 | Retinoic acid receptor RXR-alpha (Homo sapiens) (UniProt P19793) | inactive |
| CCCCCCCCOC(=O)c1ccc(O)cc1 | Retinoic acid receptor RXR-alpha (Homo sapiens) (UniProt P19793) | active |
| CC1COC(=O)O1 (centres undefined) | Retinoic acid receptor RXR-alpha (Homo sapiens) (UniProt P19793) | inactive |
| FC(F)(F)c1ccc(Cl)c(Cl)c1 | Retinoic acid receptor RXR-alpha (Homo sapiens) (UniProt P19793) | inactive |
| NCCN1CCNCC1 | Retinoic acid receptor RXR-alpha (Homo sapiens) (UniProt P19793) | inactive |
| CC(C)N(c1ccccc1)C(C)C | Retinoic acid receptor RXR-alpha (Homo sapiens) (UniProt P19793) | inactive |
| CC1=CCC(C(C)C)=CC1 | Retinoic acid receptor RXR-alpha (Homo sapiens) (UniProt P19793) | inactive |
| CCCCCCC(C)O (centres undefined) | Retinoic acid receptor RXR-alpha (Homo sapiens) (UniProt P19793) | inactive |
| CCCCCCCCCCO[C@@H]1O[C@H](CO)[C@@H](O)[C@H](O)[C@H]1O | Retinoic acid receptor RXR-alpha (Homo sapiens) (UniProt P19793) | inactive |
| CCCC(O)C(CC)CO (centres undefined) | Retinoic acid receptor RXR-alpha (Homo sapiens) (UniProt P19793) | inactive |
| CCCCCC(=O)O[C@]1(C(C)=O)CC[C@H]2[C@@H]3CCC4=CC(=O)CC[C@]4(C)[C@H]3CC[C@@]21C | Retinoic acid receptor RXR-alpha (Homo sapiens) (UniProt P19793) | active |
